Hi there, I'd appreciate the recorded Ketoleucine, ratio versus control for every entry that follows.
Tested on: plasma metabolites
Conditions: rat, in vivo
Numbers only.

Nc1ccccc1 0.94
Nc1ccccc1Cl 0.60

# input for lookup
IN: Query: Ketoleucine, ratio versus control; subject: Nc1ccc(Cl)c([N+](=O)[O-])c1
OUT: 0.61

---

Test system: plasma metabolites
Settings: rat, in vivo
Where a name gives a salt, the structure may show the parent alone. Marks after values point to notes of the source that are not given here.
quantityKind: Taurine, plasma, ratio vs control

Consider the following items and state reported Taurine, plasma, ratio vs control for each.
1. O=P1(N(CCCl)CCCl)NCCCO1 (stereo not shown) [Cyclophosphamide monohydrate]
2. COc1cccc2c1C(=O)c1c(O)c3c(c(O)c1C2=O)C[C@@](O)(C(=O)CO)C[C@@H]3O[C@H]1C[C@H](N)[C@H](O)[C@H](C)O1 [Adriamycin hydrochloride]
3. Nc1ccn([C@@H]2O[C@H](CO)[C@@H](O)[C@@H]2O)c(=O)n1
4. N.N.O=C([O-])C1(C(=O)[O-])CCC1.[Pt+2]

OUT:
1: 1.21 *; 2: 1.39 *; 3: 1.27 *; 4: 1.47 *
